Data provenance: PubChem BioAssay (NCI)

- Tested on: OVCAR-3 ovarian
- measurementNotes: NCI tumour cell line growth inhibition, 48 h
Where a SMILES comes first, the peptide text is derived from it. [ ]: non-standard residue; d: D form. Ava = NCCCCC(=O)O; Mpa = O=C(O)CCS
assayEndpoint: TGI

1) Cc1ccc([N+](=O)[O-])cc1S(=O)(=O)Nc1ccc(C2=NN(S(=O)(=O)c3cc([N+](=O)[O-])ccc3C)C(c3cccs3)C2)cc1 (stereo unspecified) | 52.6 µM
2) Cc1ccc(C(=O)Nc2ccc(S(=O)(=O)O)c3cc(S(=O)(=O)O)cc(S(=O)(=O)O)c23)cc1NC(=O)c1cccc(NC(=O)Nc2cccc(C(=O)Nc3cc(C(=O)Nc4ccc(S(=O)(=O)O)c5cc(S(=O)(=O)O)cc(S(=O)(=O)O)c45)ccc3C)c2)c1 | > 100 µM
3) CC(=O)OCC1OC(n2c(C)c(C)cc(C#N)c2=S)C(OC(C)=O)C(OC(C)=O)C1OC(C)=O (stereo unspecified) | > 100 µM
4) COc1ccc(-c2cn(C)c3c2-n2cccc2C3=O)cc1O | 21.4 µM
5) CCO/N=C\c1ccc2oc(-c3ccccc3)cc(=O)c2c1 | 0.913 µM
6) C[C@H]1C[C@@H](n2c(Nc3ccc(OC(F)(F)F)cc3)nc3cc(CCC(=O)O)ccc32)CC(C)(C)C1 | 25.8 µM
7) O=[N+]([O-])c1ccc2c(c1)nc1n2C(c2c(F)cccc2F)SC1 (stereo unspecified) | > 100 µM
8) Nc1c(C(=O)c2cccc(-c3cccnc3)c2)cnn1-c1ccc(F)cc1 | > 25 µM
9) O=C(N/N=C\c1ccc(Cl)cc1)Nc1ccc2ccccc2c1 | > 100 µM
10) CC(C)(C)C1=CC(=N/N=c2\scc(-c3ccccc3)n2Cc2ccccc2)C=C(C(C)(C)C)C1=O | > 100 µM
11) CC1=C[P+](c2ccccc2)(c2ccccc2)c2ccccc2O1 | 9.4 µM
12) CC1=C(C)C(=O)OC(C(C)(O)C2(O)CC3OC34C3CC(O)C56OC5C=CC(=O)C6(C)C3CCC42C)C1 (stereo unspecified) | 6.23 µM
13) COc1ccc(C2=Nn3c(nnc3-c3ccc(F)c(Cl)c3)SC2)cc1 | > 100 µM
14) CC(C)(C)OC(=O)NCCCCCCCCCn1c2c(c3ccccc3c1=O)C(=O)c1ccccc1-2 | > 100 µM
15) C/C(Cc1ccc2c(c1)OCO2)=N\N=c1\sc2ccccc2n1C | > 100 µM
16) O=C(c1ccccc1)c1nc2c(Cl)ccc(Cl)c2cc1C(Br)Br | 3.15 µM
17) CCOC(=O)c1ccc(N=Cc2ccc(N(CCC#N)S(=O)(=O)c3ccccc3)cc2C)cc1 | > 100 µM
18) COc1ccc(-n2nc(C)c3c(Nc4ccc(NC(=O)Nc5cccc(C(F)(F)F)c5)cc4)ncnc32)cc1 | 3.92 µM
19) ClCCCN1CCN(CCCl)CC1 | 430 µM
20) OCc1c(-c2cccs2)oc(-c2cccs2)c1CO | > 100 µM
21) C=CCCC(O)c1cc(C)c(O)c(C)c1 (stereo unspecified) | > 100 µM
22) CC(C)(C)OC(=O)N(CCCCN(CCCn1c2c(c3ccccc3c1=O)C(=O)c1ccccc1-2)C(=O)OC(C)(C)C)CCCn1c2c(c3ccccc3c1=O)C(=O)c1ccccc1-2 | > 100 µM
23) O=C(O)c1ccc2c(O)c(O)ccc2c1 | 34.5 µM
24) N=c1oc2cc(O)ccc2cc1C(=O)Nc1ccccn1 | > 100 µM
25) CC(NC(=O)CCS)C(=O)NC(C)C(=O)NC(Cc1c[nH]c2ccccc12)C(=O)NC(Cc1c[nH]cn1)C(=O)NC(CO)C(=O)NC(Cc1c[nH]c2ccccc12)C(=O)NCCCCC(=O)NC(C)C(=O)NC(CCC(N)=O)C(=O)NC(CCCCN)C(=O)NC(C)C(=O)NC(CCCNC(=N)N)C(=O)NC(CCCCN)C(N)=O (stereo unspecified) ([Mpa]AAWHSW[Ava]AQKARK-NH2; configuration not given here) | > 100 µM
26) COc1cc(/C=C/C(=O)CC(=O)/C=C/c2cc(C)c(O)c(OC)c2)cc(C)c1O | > 100 µM
27) CC(C)(C)c1cc(C2c3cc4c(cc3OC(O)(CO)C2C(=O)O)OCO4)cc(C(C)(C)C)c1O (stereo unspecified) (tested in a mixture with another compound) | 18.9 µM
28) COC(=O)c1ccc(OCCn2nnc(C(=O)NN)c2C(=O)NN)cc1 | > 100 µM
29) CC(=O)c1cc2c(Br)cccc2oc1=O | > 100 µM
30) C=CC[P@]1(=O)O[C@H](c2ccccc2)C(C)N1C(C)C (stereo partly specified) | > 100 µM
31) COC(=O)C1(Cc2ccc3c(c2)CCC3)Cc2ccc3c(c2C1=O)CCC3 (stereo unspecified) | 52.8 µM
32) N#CN1CC[C@@H]2CC3(CCC2C1)OCCO3 (stereo partly specified) | > 100 µM
33) COc1cc2ncnc(NS(=O)(=O)c3cc4ccccc4s3)c2cc1OC | > 100 µM
34) CCN1C(=O)N(CC)C2C1NN=c1s/c(=C3\C(=O)Nc4ccccc43)c(=O)n12 (stereo unspecified) | 3.02 µM
35) N.N.N.N.N#N.N#N.[Cl-].[Os+6] | > 100 µM
36) COc1ccc(-c2nc(NC(=O)CS(=O)(=O)c3ccc(F)cc3)sc2C)cc1 | 39.9 µM
